B1: ACSBG2 (parent)
chain: TPMTIPEFFRESVNRFGTYPALAS

Variants of: B1
Assay: protein stability index of a GFP-peptide fusion (GPS, HEK-293T) (PSI 1-6); higher = more stable;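 further: lentivirally expressed fusions sorted by FACS into six bins by GFP to DsRed ratio, PSI derived from sequencing read proportions per bin multiplied by bin number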
Details: c terminus: a fixed tail appended
Class Criterion met: protein stability index at least 2. Class Criterion not met: protein stability index below 2.

Prompt line: Exam item: decide whether the reported protein stability index for F9H is at least 2.
Response line: Criterion met

Prompt line: Again, but for R15C
Response line: Criterion met

Prompt line: Again, but for T1C
Response line: Criterion not met

Prompt line: Again, but for L22R
Response line: Criterion met

Prompt line: Again, but for T18Y
Response line: Criterion met

Prompt line: Again, but for L22T
Response line: Criterion met

Prompt line: Again, but for P2T
Response line: Criterion met

Prompt line: Again, but for T1D
Response line: Criterion met

Prompt line: Again, but for M3D
Response line: Criterion met

Prompt line: Again, but for S24D
Response line: Criterion met

Prompt line: Again, but for G17M
Response line: Criterion met

Prompt line: Again, but for M3W
Response line: Criterion not met

Prompt line: Again, but for M3E
Response line: Criterion met

These entries and their values trace back to the supplement of paper PMC10567573.
